pKi: −log10 of the molar value.
Form: system (Carbonic anhydrase 2 (Homo sapiens, UniProt P00918)), quantity (pKi), values below.
readout-label: pKi

1: CN1C(=O)/C(=C\c2ccc(F)cc2)S/C1=N/c1ccc(S(N)(=O)=O)cc1
2: CCN1C(=O)/C(=C2\C(=O)Nc3ccccc32)S/C1=N/c1ccc(S(N)(=O)=O)cc1
3: NS(=O)(=O)c1ccc(/N=C2\NC(=O)/C(=C\c3ccc(F)cc3)S2)cc1
[ask] Arrange these compounds by their pKi, starting with the largest number. Answer by naming the labels in the order asked.
[reply] 3, 1, 2
(3: 8.15, 1: 7.51, 2: 6.98)

Where these numbers come from: ChEMBL document CHEMBL5500361
